Reference source for all entries: PubChem BioAssay (NCI)

Give growth inhibition for every item shown.
# EXPERIMENT_NOTES: NCI Yeast Anticancer Drug Screen. Data for the bub3 strain (AID 167)
# CONDITION_INFO: S. cerevisiae bub3 mutant strain, at 50.0 µM, active compounds read high
This is part of a sample that, as a whole, favours compounds with a hit. Of some 79,000 tested, about 15% had one in any assay.
Give bare numbers, in %.

Answered examples (3):
{"COMPOUND": "O=S1CCS(=O)C1c1ccccc1 (stereo unspecified)", "growth inhibition [%]": 67.8}
{"COMPOUND": "O=[N+]([O-])c1ccccc1CC(c1c[nH]c2ccccc12)c1c[nH]c2ccccc12", "growth inhibition [%]": 55.8}
{"COMPOUND": "O=C1/C(=N/N=C(c2ccccc2)c2ccccc2)c2ccccc2-c2ccccc21", "growth inhibition [%]": 8.5}

Parameter requested: growth inhibition. Apply to each item below.
1. CCCCCCCCCCCCOP(=O)(N1CC1(C)C)N1CC1(C)C (stereo unspecified)
2. CCCCN(CCCC)CC(O)c1ccc(CCc2ccccc2)cc1 (stereo unspecified)
3. O=[N+]([O-])C12CCCCC1([N+](=O)[O-])CCCC2 (stereo unspecified)

Found:
1: 87.3; 2: 76.2; 3: 84.8
